TARGET SYSTEM: rat CB2 receptor (rCB2) (Rattus norvegicus)
Sequence (Q9QZN9 1-360): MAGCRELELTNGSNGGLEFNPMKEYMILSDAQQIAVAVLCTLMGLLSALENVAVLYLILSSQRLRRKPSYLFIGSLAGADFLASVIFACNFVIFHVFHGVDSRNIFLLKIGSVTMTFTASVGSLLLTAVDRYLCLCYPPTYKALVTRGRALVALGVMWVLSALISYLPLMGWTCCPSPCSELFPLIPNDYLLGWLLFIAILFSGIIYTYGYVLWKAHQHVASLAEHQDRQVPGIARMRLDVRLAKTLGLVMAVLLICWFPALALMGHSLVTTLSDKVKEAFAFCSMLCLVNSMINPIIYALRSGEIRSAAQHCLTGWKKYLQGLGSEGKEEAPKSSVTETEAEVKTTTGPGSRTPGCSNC
ASSAY DETAILS: cell-based
Type: cell-based
TEST PARAMETERS: intracellular cAMP, CHO-K1 cells, NKH-477 prestimulated; + agonist, − inverse agonist

| CHEMICAL STRING | rCB2 EC50 range |
| --- | --- |
| CC(C)NC(=O)c1ccc2c(c1)N(C(=O)c1ccccc1)CCS2 | −E |
| COc1ccc(C(=O)N2CCSc3ccc(C(=O)NC45CC6CC(CC(C6)C4)C5)cc32)cc1 | −D |
| O=C(c1ccc2c(c1)N(S(=O)(=O)c1ccc(F)cc1)CCS2)N1CCCC1 | +C |
| CC(=O)N1CCSc2ccc(C(=O)NC(C)(C)C)cc21 | −E |
| O=C(c1ccc2c(c1)N(S(=O)(=O)c1ccc(C(F)(F)F)cc1)CCS2)N1CCCC1 | −C |
